Target: T1, ZFP SBS#993 (synthetic, UniProt P08047)
T1 chain: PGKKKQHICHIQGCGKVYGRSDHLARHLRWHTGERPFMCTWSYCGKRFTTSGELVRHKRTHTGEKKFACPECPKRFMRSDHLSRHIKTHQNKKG
Assay: EMSA
Settings: tags: MBP fusion
Assay readout: pKd
Note on pKd: it is the negative log10 of concentration, concentration in mol/L.

In: Given the binder GGGGCTGGG (dsDNA) DNA 1: GGGGCTGGG DNA 2: CCCAGCCCC , what is its reported pKd?
Out: 8.51
